- Tested on: DB cells
- Protocol description: DB cell proliferation analysis
- Type: cell-based, human
- Assay context: read-out: Proliferation EC50 after 12 days, 0.01 – 10 μM, 12 days

- Molecule: "Cc1ncsc1-c1ccc(CNC(=O)[C@@H]2C[C@@H](O)CN2C(=O)[C@@H](NC(=O)C2CC(NC(=O)c3ccc(-c4cnc(NCc5ccco5)n5cnnc45)cc3)C2)C(C)(C)C)cc1 (stereo partly shown)"
  EC50 [µM]: 0.79
